- Tested on: Escherichia coli ATCC BAA-2469
- EXPERIMENTAL PROTOCOL: percent growth inhibition of drug alone vs DMSO control; higher = more growth inhibition
- STUDY CONDITIONS: antibiotic (0.125x MIC): none (0.1% DMSO); 20 µM
Where a name gives a salt, the structure may show the parent alone.
Let's look at some molecules and their measured percent growth inhibition of drug alone.
Write down the numeric answer in % and omit the unit.

O=C(Nc1ccc([N+](=O)[O-])cc1Cl)c1cc(Cl)ccc1O [Niclosamide] | 14.5
Nc1nnc(-c2cccc(Cl)c2Cl)c(N)n1 | 1.91
Cc1cccc(C)c1NC(=O)C1CCCCN1C (centres undefined) [Mepivacaine hydrochloride] | -0.545

The reported percent growth inhibition of drug alone of the molecule COc1cc(C(=O)NCc2ccc(OCCN(C)C)cc2)cc(OC)c1OC [Trimethobenzamide hydrochloride] was -0.217

---

- System: Klebsiella pneumoniae NCTC-13439
- EXPERIMENTAL PROTOCOL: percent growth inhibition of drug + antibiotic vs DMSO control; higher = more growth inhibition
- STUDY CONDITIONS: antibiotic (0.125x MIC): tigecycline; 7 µM
Where a name gives a salt, the structure may show the parent alone.
Let's look at some compounds and their measured percent growth inhibition.
Write down the numeric answer in % and omit the unit.

The reported percent growth inhibition of the compound CN[C@@H]1[C@@H](O[C@H]2O[C@H](CO)[C@@H](N)[C@H](O)[C@H]2O)OC2C[C@@H](N)[C@@H](O[C@H]3[C@H](O)[C@@H](O)[C@H](N)C[C@@H]3N)OC2[C@@H]1O (stereo partly specified) was 35.7

The reported percent growth inhibition of the compound "COc1c(N2C[C@@H]3CCCN[C@@H]3C2)c(F)cc2c(=O)c(C(=O)O)cn(C3CC3)c12" was 14.4

The reported percent growth inhibition of the compound OCCOCCN1CCN(C2=Nc3ccccc3Sc3ccccc32)CC1 [Quetiapine hemifumarate] was -9.2

The reported percent growth inhibition of the compound "CC[C@H]1OC(=O)[C@H](C)[C@@H](O[C@H]2C[C@@](C)(OC)[C@@H](O)[C@H](C)O2)[C@H](C)[C@@H](O[C@@H]2O[C@H](C)C[C@H](N(C)C)[C@H]2O)[C@](C)(O)C[C@@H](C)CN(C)[C@H](C)[C@@H](O)[C@]1(C)O" was 64.2

The reported percent growth inhibition of the compound "CO[C@H]1/C=C/O[C@@]2(C)Oc3c(C)c(O)c4c(O)c(c5c(nc6cc(C)ccn65)c4c3C2=O)NC(=O)/C(C)=C\C=C\[C@H](C)[C@H](O)[C@@H](C)[C@@H](O)[C@@H](C)[C@H](OC(C)=O)[C@@H]1C" was 7.05

The reported percent growth inhibition of the compound CN(C)c1ccc(O)c2c1C[C@H]1C[C@H]3[C@H](N(C)C)C(O)=C(C(N)=O)C(=O)[C@@]3(O)C(O)=C1C2=O [Minocycline hydrochloride] was -1.9

---

- Tested on: Klebsiella pneumoniae KPC-119
- EXPERIMENTAL PROTOCOL: percent growth inhibition of drug + antibiotic vs DMSO control; higher = more growth inhibition
- STUDY CONDITIONS: antibiotic (0.125x MIC): colistin; 7 µM
Structures can show the parent of a compound that is named as a salt.
MEASURE: percent growth inhibition (%)
Write down the numeric answer in % and omit the unit.

Examples with their reported percent growth inhibition follow.
COc1cccc2c1C(=O)c1c(O)c3c(c(O)c1C2=O)C[C@@](O)(C(=O)CO)C[C@@H]3O[C@H]1C[C@H](N)[C@@H](O)[C@H](C)O1 [Epirubicin hydrochloride] | -0.818
C[C@@H]1CN(c2c(F)c(N)c3c(=O)c(C(=O)O)cn(C4CC4)c3c2F)C[C@H](C)N1 [Sparfloxacin] | 99.4

Please examine the following record next.
Klebsiella pneumoniae KPC-119 data for OC(c1cc(C(F)(F)F)nc2c(C(F)(F)F)cccc12)C1CCCCN1 (stereo not drawn) [Mefloquine hydrochloride] ; its percent growth inhibition: 1.61

---

Let's look at some compounds and their measured percent growth inhibition.
- Test system: Klebsiella pneumoniae KPC-119
- EXPERIMENTAL PROTOCOL: percent growth inhibition of drug + antibiotic vs DMSO control; higher = more growth inhibition
- STUDY CONDITIONS: antibiotic (0.125x MIC): colistin; 7 µM
Counter-ions that a name gives are not always drawn.
Write down the numeric answer in % and omit the unit.

Examples with their reported percent growth inhibition follow.
CCCCC(CC)CNC(=N)NC(=N)NCCCCCCNC(=N)NC(=N)NCC(CC)CCCC (configuration not stated) [Alexidine dihydrochloride] | 98
Oc1c(I)cc(Cl)c2cccnc12 [Clioquinol] | 47.2
O=C1NCN(c2ccccc2)C12CCN(CCCC(c1ccc(F)cc1)c1ccc(F)cc1)CC2 [Fluspirilen] | 4.99
CN(C(=O)CN(CCO)CC(=O)N(C)C(C)(C)Cc1ccccc1)C(C)(C)Cc1ccccc1 [Oxethazaine] | 4.52
CN(C)c1ccc(O)c2c1C[C@H]1C[C@H]3[C@H](N(C)C)C(O)=C(C(N)=O)C(=O)[C@@]3(O)C(O)=C1C2=O [Minocycline hydrochloride] | 97.3
CC[C@H]1OC(=O)[C@H](C)[C@@H](O[C@H]2C[C@@](C)(OC)[C@@H](O)[C@H](C)O2)[C@H](C)[C@@H](O[C@@H]2O[C@H](C)C[C@H](N(C)C)[C@H]2O)[C@](C)(O)C[C@@H](C)CN(C)[C@H](C)[C@@H](O)[C@]1(C)O [Azithromycin] | 40.9

Please examine the following record next.
Klebsiella pneumoniae KPC-119 data for Oc1c(Cl)cc(Cl)c(Cl)c1Cc1c(O)c(Cl)cc(Cl)c1Cl [Hexachlorophene] ; its percent growth inhibition: 4.52

---

- System: Klebsiella pneumoniae NCTC-13439
- EXPERIMENTAL PROTOCOL: percent growth inhibition of drug + antibiotic vs DMSO control; higher = more growth inhibition
- STUDY CONDITIONS: antibiotic (0.125x MIC): ciprofloxacin; 20 µM
MEASURE: percent growth inhibition (%)
Write down the numeric answer in % and omit the unit.

NC1CCN(c2c(F)cc3c(=O)c(C(=O)O)cn(C4CC4)c3c2Cl)C1 (stereo not given) [Clinafloxacin] | 93.4
NC(=O)N/N=C/c1ccc([N+](=O)[O-])o1 [Nitrofural] | 16.3
COc1c(N2C[C@@H]3CCCN[C@@H]3C2)c(F)cc2c(=O)c(C(=O)O)cn(C3CC3)c12 [Moxifloxacin] | 99.2
CC[C@H]1OC(=O)[C@H](C)[C@@H](O[C@H]2C[C@@](C)(OC)[C@@H](O)[C@H](C)O2)[C@H](C)[C@@H](O[C@@H]2O[C@H](C)C[C@H](N(C)C)[C@H]2O)[C@](C)(O)C[C@@H](C)CN(C)[C@H](C)[C@@H](O)[C@]1(C)O [Azithromycin] | 99.7
Cc1nc2n(c(=O)c1CCN1CCC(c3noc4cc(F)ccc34)CC1)CCCC2 [Risperidone] | -11.1

The reported percent growth inhibition of the compound CCN1CCN(c2cc3c(cc2F)c(=O)c(C(=O)O)cn3C2CC2)CC1 [Enrofloxacin] was 73.1

The reported percent growth inhibition of the compound O=C(O)c1cn(-c2ccc(F)cc2)c2cc(N3CCNCC3)c(F)cc2c1=O [Sarafloxacin] was 99.6

The reported percent growth inhibition of the compound C#C[C@]1(OC(C)=O)CC[C@H]2[C@@H]3CCC4=CC(=NO)CC[C@@H]4[C@H]3CC[C@@]21CC (mixture of isomers) [Norgestimate] was 4.4

The reported percent growth inhibition of the compound Cc1c(F)c(N2CCNC(C)C2)cc2c1c(=O)c(C(=O)O)cn2C1CC1 (stereo not given) [Grepafloxacin] was 51.2

The reported percent growth inhibition of the compound COc1c(N2CCNC(C)C2)c(F)cc2c(=O)c(C(=O)O)cn(C3CC3)c12 (stereo not given) [Gatifloxacin] was 96.7

---

- Tested on: Klebsiella pneumoniae KPC-119
- EXPERIMENTAL PROTOCOL: percent growth inhibition of drug + antibiotic vs DMSO control; higher = more growth inhibition
- STUDY CONDITIONS: antibiotic (0.125x MIC): colistin; 7 µM
Let's look at some molecules and their measured percent growth inhibition.
Report as: number unit

Examples with their reported percent growth inhibition follow.
CO[C@H]1/C=C/O[C@@]2(C)Oc3c(C)c(O)c4c(O)c(c5c(nc6cc(C)ccn65)c4c3C2=O)NC(=O)/C(C)=C\C=C\[C@H](C)[C@H](O)[C@@H](C)[C@@H](O)[C@@H](C)[C@H](OC(C)=O)[C@@H]1C | 99.2%
CN1CCN(c2c(F)cc3c(=O)c(C(=O)O)cn4c3c2SCC4)CC1 | 96.6%

Please examine the following record next.
The reported percent growth inhibition of the molecule "COC(=O)N/N=C/c1c[n+]([O-])c2ccccc2[n+]1[O-]" was 34.1%
